biological target: DNA-PK (Homo sapiens (Human)); assay: DNA-PK assay (biochemical), flashplate 33P-ATP kinase assay; settings: Table 5
Listed next: entries and their corresponding IC50.

# annotated cases, reported IC50 shown
# compound, IC50
records = [
    ("OCc1csc(C(O)c2cc(-c3ncnc4cc(N5CCOCC5)ccc34)c(F)cc2Cl)n1 (stereo not drawn)", "< 3 nM"),
    ("OC(c1cccc(-c2ncnc3cc(N4CCOCC4)ccc23)c1)(c1nccs1)C(F)(F)F (stereo not drawn) [Example 159]", "7 to 30 nM"),
    ("Fc1ccc(C(OC(F)F)c2nccs2)cc1-c1ncnc2cc(N3CCOCC3)ccc12 (stereo not drawn)", "3 to 7 nM"),
    ("OC(c1cncc(-c2ncnc3cc(N4CCOCC4)ccc23)c1)c1nccs1 (stereo not drawn) [Example 183]", "7 to 30 nM"),
    ("Cc1csc(C(O)c2cnc(F)c(-c3ncnc4cc(N5CCOCC5)ncc34)c2)n1 (stereo not drawn)", "> 30 nM"),
]

Request: Name the recorded IC50 for CC(O)(c1cncc(-c2ncnc3cc(N4CCOCC4)ccc23)c1)c1nccs1 (stereo not drawn) [Example 138] .
Response: > 30 nM
